- Protocol Details: Biodistribution of compound No. 6 in mice (Table 6)
- Assay type: in vivo, Balb/c mice
- Condition Label: mouse, urine, 5 min, read-out: biodistribution urine
Value Kind: tissue uptake at 5 min (%ID/g)
A number alone suffices; assume %ID/g.

[ask] Requested read-out: tissue uptake at 5 min. Entry: Cc1cc(C)c(O)c(NC(=O)CN(CCN(CC(=O)O)CC(=O)Nc2cc(C)cc(C)c2O)CC(=O)O)c1 [Compound 6]
[reply] 0.95

====

- Protocol Details: Biodistribution of 99mTc complexes in rats
- Type: in vivo, Australian Albino Wistar Rats
- Condition Label: rat, brain, rats, 30 sec, read-out: biodistribution brain
tissue uptake at 0.5 min values for the molecules below.
A number alone suffices; assume %ID/g.

Solved entries (count: 4):
# Molecule, Experimental Result
measured = [
    ("O=C(O)CN(CCN(CC(=O)O)CC(=O)Nc1ccccc1O)CC(=O)Nc1ccccc1O [Compound 1]", 0.14),
    ("Nc1ccc(O)c(NC(=O)CN(CCN(CC(=O)O)CC(=O)Nc2cc(N)ccc2O)CC(=O)O)c1 [Compound 5]", 0.2),
    ("CC(C)(C)c1ccc(O)c(NC(=O)CN(CCN(CC(=O)O)CC(=O)Nc2cc(C(C)(C)C)ccc2O)CC(=O)O)c1 [Compound 4]", 0.43),
    ("O=C(O)CN(CCN(CC(=O)O)CC(=O)Nc1cc([N+](=O)[O-])ccc1O)CC(=O)Nc1cc([N+](=O)[O-])ccc1O [Compound 3]", 0.18),
]

Then this molecule:
[ask] Requested read-out: tissue uptake at 0.5 min. Entry: O=C(O)CN(CCN(CC(=O)O)CC(=O)Nc1ccc(Cl)cc1O)CC(=O)Nc1ccc(Cl)cc1O [Compound 2]
[reply] 0.14

====

- Protocol Details: Biodistribution of 67Ga complexes in mice
- Type: in vivo, balb/c mice
- Condition Label: 120 min
Value Kind: biodistribution muscle (% ID)
A number alone suffices; assume % ID.

Solved entries (count: 3):
# Compound Structure String, Result Units, Experimental Result
measured = [
    ("Cc1cc(C)c(O)c(NC(=O)CN(CCN(CC(=O)O)CC(=O)Nc2cc(C)cc(C)c2O)CC(=O)O)c1", "% ID", 1.85),
    ("O=C(O)CN(CCN(CC(=O)O)CC(=O)Nc1ccc(Cl)cc1O)CC(=O)Nc1ccc(Cl)cc1O", "% ID", 0.31),
    ("CC(C)(C)c1ccc(O)c(NC(=O)CN(CCN(CC(=O)O)CC(=O)Nc2cc(C(C)(C)C)ccc2O)CC(=O)O)c1", "% ID", 0.21),
]

[ask] Requested read-out: biodistribution muscle. Entry: O=C(O)CN(CCN(CC(=O)O)CC(=O)Nc1ccccc1O)CC(=O)Nc1ccccc1O
[reply] 0.48

====

- Protocol Details: Biodistribution of 99mTc complexes in rats
- Format: in vivo, Australian Albino Wistar Rats
- Condition Label: rat, liver, rats, 5 min, read-out: biodistribution liver
Value Kind: tissue uptake at 5 min (%ID/g)
A number alone suffices; assume %ID/g.

# Compound, Result Units, tissue uptake at 5 min
measured = [
    ("CC(C)(C)c1ccc(O)c(NC(=O)CN(CCN(CC(=O)O)CC(=O)Nc2cc(C(C)(C)C)ccc2O)CC(=O)O)c1 [Compound 4]", "%ID/g", 7.39),
]

[ask] Requested read-out: tissue uptake at 5 min. Entry: O=C(O)CN(CCN(CC(=O)O)CC(=O)Nc1ccccc1O)CC(=O)Nc1ccccc1O [Compound 1]
[reply] 1.34

[ask] Continue with O=C(O)CN(CCN(CC(=O)O)CC(=O)Nc1ccc(Cl)cc1O)CC(=O)Nc1ccc(Cl)cc1O [Compound 2]
[reply] 3.93

[ask] Continue with O=C(O)CN(CCN(CC(=O)O)CC(=O)Nc1cc([N+](=O)[O-])ccc1O)CC(=O)Nc1cc([N+](=O)[O-])ccc1O [Compound 3]
[reply] 1.24

[ask] Continue with Nc1ccc(O)c(NC(=O)CN(CCN(CC(=O)O)CC(=O)Nc2cc(N)ccc2O)CC(=O)O)c1 [Compound 5]
[reply] 0.79

====

- Protocol Details: Biodistribution of 99mTc complexes in mice
- Format: in vivo, Balb/c mice
- Condition Label: 30 min
biodistribution stomach values for the molecules below.
A number alone suffices; assume % Injected dose.

Solved entries (count: 3):
# Compound Structure String, biodistribution stomach (% Injected dose)
measured = [
    ("O=C(O)CN(CCN(CC(=O)O)CC(=O)Nc1ccc(Cl)cc1O)CC(=O)Nc1ccc(Cl)cc1O", 2.06),
    ("O=C(O)CN(CCN(CC(=O)O)CC(=O)Nc1ccccc1O)CC(=O)Nc1ccccc1O", 0.49),
    ("CC(C)(C)c1ccc(O)c(NC(=O)CN(CCN(CC(=O)O)CC(=O)Nc2cc(C(C)(C)C)ccc2O)CC(=O)O)c1", 4.84),
]

Then this molecule:
[ask] Requested read-out: biodistribution stomach. Entry: Cc1cc(C)c(O)c(NC(=O)CN(CCN(CC(=O)O)CC(=O)Nc2cc(C)cc(C)c2O)CC(=O)O)c1
[reply] 1.73

====

- Protocol Details: Biodistribution of 99mTc complexes in rats
- Assay type: in vivo, Australian Albino Wistar Rats
- Condition Label: rat, tail, rats, 1 min, read-out: biodistribution tail
- Method: A typical method of radiolabelling of the chelator was achieved by dissolving the chelator in a basic solution of saline. The pH was then adjusted to approx. 6 with HCl. Excess stannous chloride was added to the resultant solution followed by one equivalent volume of sodium ^99m TcO4 (10-50 mCi/ml). Final concentration of the chelator was approx. 1 mg/ml. The efficacy of labelling was determined by ITLC-SG. For each product only one main radiochemical species was observed. […]
Value Kind: tissue uptake at 1 min (%ID/g)
A number alone suffices; assume %ID/g.

# Compound Structure String, tissue uptake at 1 min / %ID/g
measured = [
    ("O=C(O)CN(CCN(CC(=O)O)CC(=O)Nc1cc([N+](=O)[O-])ccc1O)CC(=O)Nc1cc([N+](=O)[O-])ccc1O", 2.43),
    ("Nc1ccc(O)c(NC(=O)CN(CCN(CC(=O)O)CC(=O)Nc2cc(N)ccc2O)CC(=O)O)c1", 0.14),
    ("O=C(O)CN(CCN(CC(=O)O)CC(=O)Nc1ccc(Cl)cc1O)CC(=O)Nc1ccc(Cl)cc1O", 0.66),
    ("CC(C)(C)c1ccc(O)c(NC(=O)CN(CCN(CC(=O)O)CC(=O)Nc2cc(C(C)(C)C)ccc2O)CC(=O)O)c1", 0.53),
]

Then this compound:
[ask] Requested read-out: tissue uptake at 1 min. Entry: O=C(O)CN(CCN(CC(=O)O)CC(=O)Nc1ccccc1O)CC(=O)Nc1ccccc1O
[reply] 0.56

====

- Protocol Details: Biodistribution of compound No. 6 in mice (Table 6)
- Type: in vivo, Balb/c mice
- Condition Label: mouse, thyroid, 5 min, read-out: biodistribution thyroid
- Experimental: A series of derivatives incorporating carboxyl and phenolate donor groups (1-6) were synthesised by literature method and their radiolabelling characteristic and biological behaviour evaluated. […] A typical method of radiolabelling of the chelator was achieved by dissolving the chelator in a basic solution of saline. […] The efficacy of labelling was determined by ITLC-SG. […]
Value Kind: tissue uptake at 5 min (%ID/g)
A number alone suffices; assume %ID/g.

[ask] Requested read-out: tissue uptake at 5 min. Entry: Cc1cc(C)c(O)c(NC(=O)CN(CCN(CC(=O)O)CC(=O)Nc2cc(C)cc(C)c2O)CC(=O)O)c1
[reply] 3.73

====

- Protocol Details: Biodistribution of 99mTc complexes in rats
- Type: in vivo, Australian Albino Wistar Rats
- Condition Label: rat, total git, rats, 3 min, read-out: biodistribution tot GIT
Value Kind: tissue uptake at 0.05 h (%ID/g)
A number alone suffices; assume %ID/g.

Solved entries (count: 3):
# Molecule, Experimental Result
measured = [
    ("O=C(O)CN(CCN(CC(=O)O)CC(=O)Nc1ccc(Cl)cc1O)CC(=O)Nc1ccc(Cl)cc1O [Compound 2]", 1.56),
    ("O=C(O)CN(CCN(CC(=O)O)CC(=O)Nc1ccccc1O)CC(=O)Nc1ccccc1O [Compound 1]", 0.59),
    ("Nc1ccc(O)c(NC(=O)CN(CCN(CC(=O)O)CC(=O)Nc2cc(N)ccc2O)CC(=O)O)c1 [Compound 5]", 0.31),
]

Then this molecule:
[ask] Requested read-out: tissue uptake at 0.05 h. Entry: CC(C)(C)c1ccc(O)c(NC(=O)CN(CCN(CC(=O)O)CC(=O)Nc2cc(C(C)(C)C)ccc2O)CC(=O)O)c1 [Compound 4]
[reply] 1.59

====

- Protocol Details: Biodistribution of 99mTc complexes in mice
- Assay type: in vivo, Balb/c mice
- Condition Label: 10 min
biodistribution blood values for the compounds below.
A number alone suffices; assume % Injected dose.

Solved entries (count: 2):
# Compound Structure String, Value Kind, Experimental Result
records = [
    ("O=C(O)CN(CCN(CC(=O)O)CC(=O)Nc1ccccc1O)CC(=O)Nc1ccccc1O", "biodistribution blood", 5.34),
    ("CC(C)(C)c1ccc(O)c(NC(=O)CN(CCN(CC(=O)O)CC(=O)Nc2cc(C(C)(C)C)ccc2O)CC(=O)O)c1", "biodistribution blood", 5.04),
]

[ask] Requested read-out: biodistribution blood. Entry: Cc1cc(C)c(O)c(NC(=O)CN(CCN(CC(=O)O)CC(=O)Nc2cc(C)cc(C)c2O)CC(=O)O)c1
[reply] 6.34

[ask] Continue with O=C(O)CN(CCN(CC(=O)O)CC(=O)Nc1ccc(Cl)cc1O)CC(=O)Nc1ccc(Cl)cc1O
[reply] 7.15

Value source: patent US5807535A
